Documented microsomal CLint at 1 μM across a set of compounds
Assay summary: Substrate depletion in commercial Han Wistar rat intestinal microsomes, combined or individual CYP and UGT cofactors
Assay conditions: male, Han Wistar, rat, pH 7.4, CL int,u, Commercial Han Wistar pool, CYP cofactors, 1 mg/ml, 1 μM compound, CYP cofactors only
Value expressed in µL/min/mg; do not type the unit.

A selection of reference data follows.
CN(C)CCC=C1c2ccccc2CCc2ccccc21 : 5.3
O=c1ccc2ccc(O)cc2o1 [7‐Hydroxycoumarin] : 0.9

stdin: // query microsomal CLint at 1 μM value for entry CCCCC1=NC2(CCCC2)C(=O)N1Cc1ccc(-c2ccccc2-c2nnn[nH]2)cc1
stdout: 1.5

stdin: # input compound: CCCCc1nc(Cl)c(CO)n1Cc1ccc(-c2ccccc2-c2nn[nH]n2)cc1 ; wanted: its microsomal CLint at 1 μM
stdout: 0.1

----------
Assay summary: In vitro-in vivo extrapolation of rat intestinal unbound intrinsic clearance (CL int,u,gut)
Assay type: in vitro ADME
Assay conditions: mean of pool 1 and pool 2 CL int,u and scaling factors
API: label(entry) gives true if the entry's CL int,u,gut, Combined in-house pools is strictly smaller than 0.02 L/h; on equality or larger values it gives false.

Cc1ncc2n1-c1ccc(Cl)cc1C(c1ccccc1F)=NC2 : false
CN(C)CCC=C1c2ccccc2CCc2ccccc21 : true
COc1ccc2[nH]c([S+]([O-])Cc3ncc(C)c(OC)c3C)nc2c1 (stereo not drawn) : true
C=CC[C@@H]1/C=C(\C)C[C@H](C)C[C@H](OC)[C@H]2O[C@@](O)(C(=O)C(=O)N3CCCC[C@H]3C(=O)O[C@H](/C(C)=C/[C@@H]3CC[C@@H](O)[C@H](OC)C3)[C@H](C)[C@@H](O)CC1=O)[C@H](C)C[C@@H]2OC : false

# ---- query molecule ----
stdin: Is CL int,u,gut, Combined in-house pools of CCC(C)(C)C(=O)O[C@H]1C[C@@H](C)C=C2C=C[C@H](C)[C@H](CC[C@@H]3C[C@@H](O)CC(=O)O3)[C@H]21 strictly below 0.02 L/h?
stdout: false

----------
Assay summary: in vitro
Assay conditions: male, Han Wistar, rat, microsomes, pH 7.4, CL int,u, Commercial Han Wistar pool, CYP cofactors
Readout kind: microsomal CLint at 1 μM (µL/min/mg)
Only the number, expressed in µL/min/mg, is required.

stdin: Would you kindly share the measured microsomal CLint at 1 μM for CC(C)Oc1ccc2c(=O)c(-c3ccccc3)coc2c1 [Ipriflavone] ?
stdout: 59.1

----------
Assay summary: Substrate depletion in commercial Han Wistar rat intestinal microsomes, combined or individual CYP and UGT cofactors
Assay conditions: male, Han Wistar, rat, pH 7.4, CL int,u, Commercial Han Wistar pool, Combined cofactors, 1 mg/ml, 1 μM compound, combined CYP and UGT cofactors
Documented microsomal CLint at 1 μM across a set of compounds
Please respond with the number in µL/min/mg and leave the unit unwritten.

Worked cases, answers included:
CCCCc1nc(Cl)c(CO)n1Cc1ccc(-c2ccccc2-c2nn[nH]n2)cc1 [Losartan] : 10
O=c1ccc2ccc(O)cc2o1 [7‐Hydroxycoumarin] : 272
CN(C)CCC=C1c2ccccc2CCc2ccccc21 [Amitriptyline] : 23.8

stdin: Entry CCCCC1=NC2(CCCC2)C(=O)N1Cc1ccc(-c2ccccc2-c2nnn[nH]2)cc1 [Irbesartan] has what microsomal CLint at 1 μM?
stdout: 15.2
